FYI, the data here is from paper PMC10397247.

Listed here: items and their measured interaction score.
Assayed System: T1, 4H3697-AA
T1 chain: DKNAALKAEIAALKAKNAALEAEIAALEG
Test Details: two-hybrid library CCmax;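 further: natural log of median RNA to DNA barcode read ratio; higher means stronger binding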
Details: mean of both orientations
// response body must contain only the number

Example entries begin here.
* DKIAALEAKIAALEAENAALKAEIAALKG [4H2330-AA] | -1.56
* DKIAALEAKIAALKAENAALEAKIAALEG [4H2389-AA] | -1.74
* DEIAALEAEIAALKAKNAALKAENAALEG [4H123-AA] | -1.64
* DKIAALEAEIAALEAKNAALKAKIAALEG [4H2109-AA] | -0.415
* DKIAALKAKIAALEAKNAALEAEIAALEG [4H2865-AA] | -1.95

Prompt line: I have this binder here, DKIAALKAKIAALKAENAALKAENAALEG [4H2907-AA] , and I need its recorded interaction score.
Response line: -1.97

Prompt line: Next up: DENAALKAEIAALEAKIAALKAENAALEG [4H1579-AA]
Response line: -1.92
